Source: PubChem BioAssay (NCI)

// reported TGI per item
Test system: CCRF-CEM leukemia
Assay: NCI tumour cell line growth inhibition, 48 h

Sample answers from the record:
O=c1[nH]nc(Cc2ccc([N+](=O)[O-])cc2)[nH]1: > 100 µM
CC(C)(C)c1ccc(C(O)(c2ccc(C(C)(C)C)cc2)c2ccc(C(C)(C)C)cc2)cc1: > 100 µM
CCSc1nn(-c2c3ccccc3nc3ccccc23)c(=S)s1: > 100 µM
COc1cc(/C=C/C=C2\CC(C)C/C(=C\C=C\c3ccc(O)c(OC)c3)C2=O)ccc1O (stereo not given): 15.6 µM
Cc1ccc(C)c2sc3cc(=O)ccc-3nc12: 70.3 µM

For the record NC(=S)N1N=C(c2ccc3c(c2)CCC3)CC1c1ccccc1 (stereo not given) , what value of TGI is listed for CCRF-CEM leukemia? > 100 µM

Request: CC(C)c1cc2c(O)c(c1)Cc1cc(C(C)C)cc(c1O)Cc1cc(C(C)C)cc(c1O)Cc1cc(C(C)C)cc(c1O)Cc1cc(C(C)C)cc(c1O)Cc1cc(C(C)C)cc(c1O)C2 > 100 µM

Request: COc1cc(C=NCC(=O)CSC(c2ccccc2)c2ccccc2)cc(OC)c1OC > 100 µM

Request: Cc1ccc(C)c(NC(=O)CCc2n[nH]c(=S)o2)c1 > 100 µM

Request: CCOC(=O)c1c(C)n(CCN2CCN(C)CC2)c2ccc(OC)cc12 71.4 µM

###

// reported TGI per item
Tested on: EKVX NSCLC
Assay: NCI tumour cell line growth inhibition, 48 h

Sample answers from the record:
CC1(C)CN=C(c2ccc3ccccc3c2O)N1: > 100 µM
Cc1cc2nnn(C3CCCO3)c2cc1C (stereo unspecified): > 100 µM
COc1ccc(/C=C/CO)cc1OC: > 100 µM
CCOc1cc(C=Nc2ccc(Oc3ccc(Cl)cc3)c(Cl)c2)ccc1O: 41.3 µM
COc1ccccc1OCC(COC(=O)Nc1ccc(C)cc1)OC(=O)Nc1ccc(C)cc1 (stereo unspecified): 65.8 µM

# query: TGI of entry COc1ccc(C2CC(C)=Nc3c([nH]c(=S)[nH]c3=O)N2)cc1 (stereo unspecified) 50.2 µM

###

// reported GI50 per item
Test system: A498 renal
Assay: NCI tumour cell line growth inhibition, 48 h

Sample answers from the record:
COc1cc(Nc2ncc(-c3ccccc3)o2)cc(OC)c1OC: 0.607 µM
COCCOC(=O)CCn1cc(F)c(=O)[nH]c1=O: 0.989 µg/mL
O.O=[Se](=O)(O)O.[NH-]C1CCCCC1[NH-].[Pt+2] (centres undefined): 19.4 µM
Nc1ccccc1C#Cc1ccccc1C#CCCCCO: 21.9 µM

Here is another compound to look at.
# query: GI50 of entry O=C(O)C(O)C(O)C1[O][Sb][O]C1CO (centres undefined) > 100 µM

###

Tested on: OVCAR-5 ovarian
Assay: NCI tumour cell line growth inhibition, 48 h
Rule: TGI of 70 µM or more gives t; anything lower gives f.

# count of solved cases: 5
Cc1ccc(N=Nc2cc(=O)[nH]c(=O)[nH]2)cc1C: f
CN1C(C(=O)Nc2ccccn2)=C(O)c2ccccc2S1(=O)=O: t
O=C(/C=C/c1cccs1)Nc1ncc(Cc2ccccc2F)s1: t
C1CN(C23OC4(N5CCOCC5)C5C6CC(C7C6C4C72)C53)CCO1 (configuration not stated): t
CC(C)=CCC[C@](C)(O)[C@H]1CC[C@]2(C)[C@@H]1CC[C@@H]1[C@@]3(C)CC[C@H](OC(=O)CCC(=O)O)C(C)(C)[C@@H]3CC[C@]12C: t

Evaluate CCCCCCCCSC(SCCCCCCCC)=C1C(=O)N(c2ccccc2)N=C1C : TGI at minimum 70 µM? t

Request: Nc1ncc(Cc2nn3c(COc4ccc(Cl)cc4)nnc3s2)s1 t

Request: C(=C1/CCCCC([n+]2ccccc2)=N1)/c1ccccc1 t

###

// reported log10(TGI) per item
System: HOP-62 NSCLC
Test: NCI tumour cell line growth inhibition, 48 h
Plainly stated, the numbers are log10 of TGI given in µM.

Sample answers from the record:
O=c1oc2ccccc2cc1-c1nc2ccccc2s1: 1.25
C=CC(=O)N1C/C(=C\c2ccc(F)cc2)C(=O)/C(=C/c2ccc(F)cc2)C1: 0.15

For the record O=C(Nc1ccc(-c2nc3ccc(NC(=O)c4ccc(Cl)cc4)cc3[nH]2)cc1)c1ccc(Cl)cc1 , what value of log10(TGI) is listed for HOP-62 NSCLC? 0.96

Request: CC(C)(CN1CCCCC1)C(=O)CC(SCCS(=O)(=O)O)c1ccc(Cl)c(Cl)c1 (configuration not stated) 1.27

Request: O=C(O)CCN1C(=O)/C(=C/C(Cl)=C/c2ccccc2)SC1=S 1.12

Request: COc1cc(/C=C/C=C2\CC(C)C/C(=C\C=C\c3ccc(O)c(OC)c3)C2=O)ccc1O (configuration not stated) 1.58

Request: COc1cc(C(=O)c2c(-c3ccccc3)oc3ccccc23)cc(OC)c1O 1.37

Request: Clc1cccc(C2SCc3nc4ccccc4n32)c1Cl (configuration not stated) 1.51

Request: C[C@@H]1CC2(N=CCS2)[C@]2(O)O[C@@H]3C[C@@]4(C)[C@H](C[C@H]3O[C@@H]2O1)C[C@H]1O[C@]12[C@@H]4[C@H](O)C(=O)[C@]1(C)C(C3=CC(=O)OC3)CC[C@]21O (some centres not stated) -1.68

Request: COc1cc([N+](=O)[O-])c2ncccc2c1O 0.70

Request: C=C(C)[C@@H]1CC[C@]2(C#N)CC[C@]3(C)[C@H](CC[C@@H]4[C@@]5(C)CCCNC(C)(C)[C@@H]5CC[C@]43C)[C@@H]12 0.52

###

// reported TGI per item
System: UACC-62 melanoma
Assay: NCI tumour cell line growth inhibition, 48 h

C/C(=N\n1c(N)c(C#N)c(-c2ccc(Cl)cc2)c(C#N)c1=O)c1cccnc1: > 100 µM
Fc1ccccc1C1SCC2=Nc3ccccc3CN21 (configuration not stated): > 100 µM
C[P+](C)(CC(F)(F)F)c1ccccc1: > 100 µM

# query: TGI of entry O=C1CCCc2c(O)ccc(O)c21 > 100 µM

Request: CN(C)/C(=N/C(=O)Nc1ccccc1)SCc1ccccc1 > 100 µM

Request: CN(CCc1ccccn1)C(=S)N/N=C/c1ccccn1 15.7 µM

Request: Cn1c(=O)n2n(c1=O)C1C(=CC2)C2C=CC1n1c(=O)n(C)c(=O)n12 (configuration not stated) > 100 µM

Request: CC(=O)Nc1[nH]c(=O)[nH]c(=O)c1N(C(C)=O)C(C)=O > 100 µM

Request: Cc1ccc2c3ccc4c(c3n(C)c2c1)C(=O)C=CC4=O > 10 µM

###

System: HT29 colon
Assay: NCI tumour cell line growth inhibition, 48 h
outcome.measure: TGI

Sample answers from the record:
CN(NC(=O)/C(=C/C=C/c1ccccc1)NC(=O)c1ccccc1)C1=C(Cl)C(=O)[N+](c2ccccc2)=CC1: > 100 µM
O=C(NC(Cc1c[nH]c2ccccc12)C(=O)O)/C(=C/c1ccccc1)NC(=O)c1ccccc1 (centres undefined): > 100 µM
Cc1ccc(C)c2sc3cc(=O)ccc-3nc12: > 100 µM

# query: TGI of entry O=C1C=Cc2noc3cccc1c23 79.7 µM

Request: Cn1c(=O)n2n(c1=O)C1C(=CC2)C2C=CC1n1c(=O)n(C)c(=O)n12 (centres undefined) > 100 µM

Request: O=c1oc2ccccc2cc1-c1nc2ccccc2s1 25.8 µM

Request: C[C@@H]1CC[C@H]2C(CN3CCN(CC4=C(C(F)(F)F)O[C@@H]5O[C@@]6(C)CC[C@H]7[C@H](C)CC[C@@H]4[C@@]57OO6)CC3)=C(C(F)(F)F)O[C@@H]3O[C@@]4(C)CC[C@@H]1[C@]32OO4 > 100 µM

Request: O=C(N/N=C\c1cc(Cl)ccc1O)N/N=C/c1cc(Cl)ccc1O > 100 µM

Request: O.O=[Se](=O)(O)O.[NH-]C1CCCCC1[NH-].[Pt+2] (centres undefined) > 100 µM

###

Tested on: IGROV1 ovarian
Test: NCI tumour cell line growth inhibition, 48 h
// reported TGI per item
Respond numerically; units are µM and should not be typed.

CCCS(=O)OC1C(C2COC(C)(C)O2)OC2OC(C)(C)OC21 (centres undefined): 33.2
O=C(O)CCN1C(=O)/C(=C/C(Cl)=C/c2ccccc2)SC1=S: 6.98
CC(=O)OCC1OC(O[C@@H]2C[C@H]3C(C)(C)[C@H](OC(C)=O)CC[C@]3(C)[C@H]3CC[C@@H]4[C@]5(CC[C@@]4(C)[C@@]32C)O[C@@H]([C@H](O)C(C)(C)O)C[C@@H]5C)C(O)C(O)C1O (some centres undefined): 21.6

Here is another molecule to look at.
# query: TGI of entry COc1cc([N+](=O)[O-])c2ncccc2c1O 25.5
